A collection of compounds and their measured ED50
Target: 5-HT2 (Rattus norvegicus, UniProt P14842)
Construct: Four rats, male Wistar (Mol:Wist) SPF rats, are used at each dose level; from tissue; host or cells: living male Wistar (Mol:Wist) SPF rats; receptor endogenous to the animal
Sequence (P14842 whole entry): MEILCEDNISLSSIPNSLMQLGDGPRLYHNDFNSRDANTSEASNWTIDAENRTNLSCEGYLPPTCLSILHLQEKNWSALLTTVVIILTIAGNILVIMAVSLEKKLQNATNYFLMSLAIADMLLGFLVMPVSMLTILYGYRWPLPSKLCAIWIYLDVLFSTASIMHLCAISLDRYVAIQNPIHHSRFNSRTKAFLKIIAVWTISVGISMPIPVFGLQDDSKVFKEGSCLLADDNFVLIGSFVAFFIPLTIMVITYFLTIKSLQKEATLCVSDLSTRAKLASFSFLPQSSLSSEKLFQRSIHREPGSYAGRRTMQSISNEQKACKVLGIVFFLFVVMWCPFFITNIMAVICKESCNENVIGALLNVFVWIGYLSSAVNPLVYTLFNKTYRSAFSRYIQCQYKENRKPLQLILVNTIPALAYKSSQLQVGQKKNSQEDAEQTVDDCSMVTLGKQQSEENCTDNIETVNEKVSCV
Test: Quipazine inhibition (antagonism of quipazine induced head twitches in rats)
Assay type: in vivo
Conditions: po; p.o. 24 hrs before quipazine (6.8 mg/kg, s.c.); head twitches, rat
Field: numeric (µmol/kg). Do not append units.

Would you please look over these solved cases?
>  <STRUCTURE_STRING>
CCCCCC(=O)N1CCN(CCN2CCC(c3cn(-c4ccc(F)cc4)c4ccc(Cl)cc34)CC2)C1=O

>  <ASSAYED_TARGET>
5-HT2 (Rattus norvegicus, UniProt P14842)

>  <ED50 (µmol/kg)>
0.039

$$$$
>  <STRUCTURE_STRING>
O=C(c1ccccc1)N1CCN(CCN2CCC(c3cn(-c4ccc(F)cc4)c4ccc(Cl)cc34)CC2)C1=O

>  <ASSAYED_TARGET>
5-HT2 (Rattus norvegicus, UniProt P14842)

>  <ED50 (µmol/kg)>
0.05

$$$$
>  <STRUCTURE_STRING>
CCCCCCCC(=O)N1CCN(CCN2CCC(c3cn(-c4ccc(F)cc4)c4ccc(Cl)cc34)CC2)C1=O

>  <ASSAYED_TARGET>
5-HT2 (Rattus norvegicus, UniProt P14842)

>  <ED50 (µmol/kg)>
0.092

$$$$

Form field: ED50 recorded for `CCCCCCCCCCOC(=O)N1CCN(CCN2CCC(c3cn(-c4ccc(F)cc4)c4ccc(Cl)cc34)CC2)C1=O` with 5-HT2 (Rattus norvegicus, UniProt P14842) (enter value)
1.1

----------
Assay system UniProt P14842; read-out recorded as log10 IC50.
// units: µM (pre-log); metric: IC50; scale: log10

>  <COMPOUND>
CCCCCCCC(=O)N1CCN(CCN2CCC(c3cn(-c4ccc(F)cc4)c4ccc(Cl)cc34)CC2)C1=O [Compound 8f]

>  <log10 IC50>
-0.85

$$$$
>  <COMPOUND>
CC(=O)N1CCN(CCN2CCC(c3cn(-c4ccc(F)cc4)c4ccc(Cl)cc34)CC2)C1=O [Compound 1a]

>  <log10 IC50>
-2.92

$$$$
>  <COMPOUND>
CN(C)C(=O)N1CCN(CCN2CCC(c3cn(-c4ccc(F)cc4)c4ccc(Cl)cc34)CC2)C1=O [Compound 4a]

>  <log10 IC50>
-3.05

$$$$
>  <COMPOUND>
CC(C)c1ccc(C(=O)N2CCN(CCN3CCC(c4cn(-c5ccc(F)cc5)c5ccc(Cl)cc45)CC3)C2=O)cc1 [Compound 8a]

>  <log10 IC50>
-1.70

$$$$
>  <COMPOUND>
CCCCCCCCCCOCN1CCN(CCN2CCC(c3cn(-c4ccc(F)cc4)c4ccc(Cl)cc34)CC2)C1=O [Compound 7d]

>  <log10 IC50>
-1.31

$$$$
>  <COMPOUND>
CN(C)CN1CCN(CCN2CCC(c3cn(-c4ccc(F)cc4)c4ccc(Cl)cc34)CC2)C1=O [Compound 6b]

>  <log10 IC50>
-3.22

$$$$
>  <COMPOUND>
CCCC(=O)N1CCN(CCN2CCC(c3cn(-c4ccc(F)cc4)c4ccc(Cl)cc34)CC2)C1=O [Compound 8d]

>  <log10 IC50>
-2.25

$$$$
>  <COMPOUND>
CCCCCCCCCC(=O)N1CCN(CCN2CCC(c3cn(-c4ccc(F)cc4)c4ccc(Cl)cc34)CC2)C1=O [Compound 1b]

>  <log10 IC50>
-1.24

$$$$

State the recorded log10 IC50 for this entry: O=C1N(CCN2CCC(c3cn(-c4ccc(F)cc4)c4ccc(Cl)cc34)CC2)CCN1CN1CCOCC1 [Compound 6a]
-3.01

GET /values?readout=log10 IC50&item= CCCCCCCCCCCCCCCC(=O)N1CCN(CCN2CCC(c3cn(-c4ccc(F)cc4)c4ccc(Cl)cc34)CC2)C1=O [Compound 1e]
-1.33

----------
# log10(IC50) measurements, system: UniProt P14842
Values are log10 of IC50 in nM.

Solved cases below.
>  <COMPOUND>
CCCCCCCCCCOC(=O)N1CCN(CCN2CCC(c3cn(-c4ccc(F)cc4)c4ccc(Cl)cc34)CC2)C1=O [Compound 4d]

>  <ASSAYED_TARGET>
UniProt P14842

>  <log10(IC50)>
1.11

$$$$
>  <COMPOUND>
CCCCCC(=O)N1CCN(CCN2CCC(c3cn(-c4ccc(F)cc4)c4ccc(Cl)cc34)CC2)C1=O [Compound 8e]

>  <ASSAYED_TARGET>
UniProt P14842

>  <log10(IC50)>
1.58

$$$$
>  <COMPOUND>
CCOCN1CCN(CCN2CCC(c3cn(-c4ccc(F)cc4)c4ccc(Cl)cc34)CC2)C1=O [Compound 7a]

>  <ASSAYED_TARGET>
UniProt P14842

>  <log10(IC50)>
0.08

$$$$
>  <COMPOUND>
O=C1N(CO)CCN1CCN1CCC(c2cn(-c3ccc(F)cc3)c3ccc(Cl)cc23)CC1 [Compound 5a]

>  <ASSAYED_TARGET>
UniProt P14842

>  <log10(IC50)>
-0.33

$$$$
>  <COMPOUND>
CC(=O)Oc1ccccc1C(=O)N1CCN(CCN2CCC(c3cn(-c4ccc(F)cc4)c4ccc(Cl)cc34)CC2)C1=O [Compound 8c]

>  <ASSAYED_TARGET>
UniProt P14842

>  <log10(IC50)>
1.38

$$$$
>  <COMPOUND>
CCCCCCCC/C=C\CCCCCCCC(=O)N1CCN(CCN2CCC(c3cn(-c4ccc(F)cc4)c4ccc(Cl)cc34)CC2)C1=O [Compound 2a]

>  <ASSAYED_TARGET>
UniProt P14842

>  <log10(IC50)>
2.41

$$$$

Read the next record carefully.
Look at this compound and give its reported log10(IC50). O=C(c1ccccc1)N1CCN(CCN2CCC(c3cn(-c4ccc(F)cc4)c4ccc(Cl)cc34)CC2)C1=O [Compound 1f]
0.97

----------
Target: 5-HT2 (Rattus norvegicus, UniProt P14842)
Construct: Four rats, male Wistar (Mol:Wist) SPF rats, are used at each dose level; from tissue; host or cells: living male Wistar (Mol:Wist) SPF rats; receptor endogenous to the animal
Assay: Quipazine inhibition (antagonism of quipazine induced head twitches in rats)
Type: in vivo
Conditions: po; p.o. 24 hrs before quipazine (6.8 mg/kg, s.c.); head twitches, rat
The label is 1 for ED50 below 0.08 µmol/kg and -1 for ED50 equal to or exceeding 0.08 µmol/kg.

Is the reported ED50 for `CC(=O)Oc1ccccc1C(=O)N1CCN(CCN2CCC(c3cn(-c4ccc(F)cc4)c4ccc(Cl)cc34)CC2)C1=O` strictly below 0.08 µmol/kg?
1

Determine whether this molecule shows ED50 lower than 0.08 µmol/kg (ties excluded): `CN(C)C(=O)N1CCN(CCN2CCC(c3cn(-c4ccc(F)cc4)c4ccc(Cl)cc34)CC2)C1=O`
-1

Please determine if `CCCCCCCCCCCCCCCC(=O)N1CCN(CCN2CCC(c3cn(-c4ccc(F)cc4)c4ccc(Cl)cc34)CC2)C1=O` is below 0.08 µmol/kg in terms of ED50.
-1

Just wondering, is ED50 of `CCCCCCCC/C=C\CCCCCCCC(=O)N1CCN(CCN2CCC(c3cn(-c4ccc(F)cc4)c4ccc(Cl)cc34)CC2)C1=O` below 0.08 µmol/kg?
-1

Item `O=C1N(CO)CCN1CCN1CCC(c2cn(-c3ccc(F)cc3)c3ccc(Cl)cc23)CC1` : ED50 beneath 0.08 µmol/kg, strictly?
1

Lab note: ED50 threshold 0.08 µmol/kg. Does this molecule come in strictly under it? `CC(C)c1ccc(C(=O)N2CCN(CCN3CCC(c4cn(-c5ccc(F)cc5)c5ccc(Cl)cc45)CC3)C2=O)cc1`
-1

Here's an entry: `CCCCCCCCCCOCN1CCN(CCN2CCC(c3cn(-c4ccc(F)cc4)c4ccc(Cl)cc34)CC2)C1=O` . Is its ED50 below 0.08 µmol/kg?
-1

Given the entry `CCCCCCCCCC(=O)N1CCN(CCN2CCC(c3cn(-c4ccc(F)cc4)c4ccc(Cl)cc34)CC2)C1=O` , would its reported ED50 be below 0.08 µmol/kg?
-1

Please determine if `CCCC(=O)N1CCN(CCN2CCC(c3cn(-c4ccc(F)cc4)c4ccc(Cl)cc34)CC2)C1=O` is below 0.08 µmol/kg in terms of ED50.
1

Strictly below 0.08 µmol/kg: is that where ED50 of `CC(=O)N1CCN(CCN2CCC(c3cn(-c4ccc(F)cc4)c4ccc(Cl)cc34)CC2)C1=O` sits?
1
